- EXPERIMENTAL_TARGET: T1, DnaT (wt, full length) (Escherichia coli K12, UniProt P0A8J2 1-179)
- T1 sequence: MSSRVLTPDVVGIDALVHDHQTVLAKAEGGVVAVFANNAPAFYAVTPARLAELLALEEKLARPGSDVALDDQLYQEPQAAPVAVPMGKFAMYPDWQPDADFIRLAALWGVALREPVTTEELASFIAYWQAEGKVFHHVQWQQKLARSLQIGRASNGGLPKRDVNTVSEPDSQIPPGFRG
- MEASUREMENT_DESCRIPTION: fluorescence polarization; apparent; Hill h=2.0±0.2; Buffer A: 20 mM Tris-HCl pH 7.5, 40 mM NaCl, 5% v/v glycerol, 20 C; FPA 200 nM 5'-FAM DNA, Hill fit; EMSA 30 min at 20 C, gels in 0.5x TBE at 4 C
- RUN_CONDITIONS: protein: recombinant; tags: His-MBP removed by TEV; label: 5'-FAM
pKd: −log10 of the molar value.

{"BINDER": "TTTTTTTTTTTTTTT (ssDNA) [5F-dT15]", "pKd": 4.79}
